system: MCP-1 induced chemotaxis of THP-1 cells; experiment: MCP-1 Induced Chemotaxis in THP-1 Cells; assay type: cell-based; conditions: Homo sapiens, MCP-1 0.01 μg/mL, 3 hours at 37° C., read-out: Inhibition of MCP-1 Induced Chemotaxis IC50
Give IC50 for every item shown.
Number in nM, nothing else.

Q) Please indicate recorded IC50 of N=C(NC(=O)c1cc(F)cc(F)c1)N1CCC(C(O)CN2CCC(c3c[nH]c4ccccc34)CC2)CC1 (stereo not shown) [Compound 10] measured with MCP-1 induced chemotaxis of THP-1 cells.
A) 270

Q) Supply IC50 measured with MCP-1 induced chemotaxis of THP-1 cells for OC(CN1CCC(c2c[nH]c3ccccc23)CC1)C1CCN(C(=S)Nc2cccc(Br)c2)CC1 (stereo not shown) [Compound 9] .
A) 20

Q) For MCP-1 induced chemotaxis of THP-1 cells, give IC50 of the listed compound: O=C(Nc1cc(F)cc(F)c1)N1CCC(C(O)CN2CCC(c3c[nH]c4ccccc34)CC2)CC1 (stereo not shown) [Compound 5]
A) 120

Q) Provide IC50, tested on MCP-1 induced chemotaxis of THP-1 cells, for CSc1ccc(NC(=O)N2CCC(C(O)CN3CCC(c4c[nH]c5ncccc45)CC3)CC2)cc1 (stereo not shown) [Compound 25] .
A) 640

Q) State IC50 (MCP-1 induced chemotaxis of THP-1 cells) of O=C(Nc1ccc(Cl)c(Cl)c1)N1CCC(O)(C(O)CN2CCC(c3c[nH]c4ccc(N5CCOCC5)cc34)CC2)CC1 (stereo not shown) [Compound 181] .
A) 180

Q) Tell me IC50 of CS(=O)(=O)Nc1ccc2[nH]cc(C3CCN(CC(O)C4CCN(C(=O)/C=C/c5cc(F)c(F)c(F)c5)CC4)CC3)c2c1 (stereo not shown) [Compound 27] when tested on MCP-1 induced chemotaxis of THP-1 cells.
A) 10

Q) Fill in IC50 for O=C(/C=C/c1cc(F)cc(F)c1)N1CCC(O)(C(O)CN2CCC(c3ccc(C(F)(F)F)cc3)CC2)CC1 (stereo not shown) [Compound 138] tested with MCP-1 induced chemotaxis of THP-1 cells.
A) 60
